Test: Solubility in water
Type: physicochemical
Counter-ions that a name gives are not always drawn.
measured_endpoint: solubility

Bench note: what solubility did CCC(C)CC(C)CCCCCCCCC(=O)NC1CC(O)CNC(=O)C2C(O)CCN2C(=O)C(C(O)CC(N)=O)NC(=O)C(C(O)C(O)c2ccc(OP(=O)(O)O)cc2)NC(=O)C2CC(O)CN2C(=O)C(C(C)O)NC1=O (stereo not shown) [Compound A-2a, disodium salt] show?
> 85 mg/mL

Source: patent EP0448343A2
